From: paper PMC9394284

Target: hA2A receptors (Homo sapiens, UniProt P29274)
Sequence (P29274 whole entry): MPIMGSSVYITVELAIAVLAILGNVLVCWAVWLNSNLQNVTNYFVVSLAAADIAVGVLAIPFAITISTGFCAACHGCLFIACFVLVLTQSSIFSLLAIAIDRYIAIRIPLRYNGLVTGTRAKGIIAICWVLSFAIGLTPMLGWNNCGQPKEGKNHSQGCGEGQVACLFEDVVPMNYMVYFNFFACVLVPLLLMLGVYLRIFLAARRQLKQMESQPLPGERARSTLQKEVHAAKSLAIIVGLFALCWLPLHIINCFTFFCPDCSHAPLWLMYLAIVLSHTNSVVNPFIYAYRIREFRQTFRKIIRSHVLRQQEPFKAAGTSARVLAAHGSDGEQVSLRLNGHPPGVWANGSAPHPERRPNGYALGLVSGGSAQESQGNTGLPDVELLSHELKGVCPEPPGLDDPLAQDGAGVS
test-readout: pKi
Interpret pKi as the negative base-10 log of the concentration measured in mol/L.

Q: Quick one: pKi of N#Cc1cccc(-c2nc(N)nc3c2cnn3Cc2c(F)cc(N)cc2F)n1 [11q] ?
Ans: 8.16

Q: Subsequent entry: N#Cc1cccc(-c2nc(N)nc3c2cnn3Cc2c(F)cc(N)cc2F)c1 [11t]
Ans: 8.13

Q: Also Cc1cc(Cn2ncc3c(-c4cccc(C#N)c4F)nc(N)nc32)ccc1N [11o] , if possible.
Ans: 7.88

Q: Same again, this time with Cc1cc(Cn2ncc3c(-c4cccc(C#N)c4)nc(N)nc32)ccc1N
Ans: 7.95
